# Lookup of reported aptazyme ON/OFF ratio keyed by entry
B1: Pistol ribozyme (parent)
chain: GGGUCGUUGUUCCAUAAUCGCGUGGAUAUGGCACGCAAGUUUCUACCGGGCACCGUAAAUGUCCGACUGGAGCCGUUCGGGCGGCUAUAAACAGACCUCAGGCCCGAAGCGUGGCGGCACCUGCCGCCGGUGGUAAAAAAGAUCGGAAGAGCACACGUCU

Variants of: B1
Assay: aptazyme ON/OFF ratio, guanine; higher = stronger switching; co-transcriptional cleavage with and without guanine
measured-metric: aptazyme ON/OFF ratio

- mutant-name: "U7A U8A G9U U10C U11G C12A C13G"
  measured-metric: "aptazyme ON/OFF ratio"
  obs-value: 1.11
- mutant-name: "U7C U8C G9U U10C U11G C12A"
  measured-metric: "aptazyme ON/OFF ratio"
  obs-value: 1.16
- mutant-name: "U7C U8C U10A U11A C12U"
  measured-metric: "aptazyme ON/OFF ratio"
  obs-value: 1.16
- mutant-name: "U7A U8A G9C U10C U11G C12U C13A"
  measured-metric: "aptazyme ON/OFF ratio"
  obs-value: 1.02
- mutant-name: "U7C U8G G9C U11A C13A"
  measured-metric: "aptazyme ON/OFF ratio"
  obs-value: 1.17
- mutant-name: "U7A U8C G9U U11A C12U"
  measured-metric: "aptazyme ON/OFF ratio"
  obs-value: 1.28
- mutant-name: "U7C G9U U10A U11A C12A C13A"
  measured-metric: "aptazyme ON/OFF ratio"
  obs-value: 1.3
